Listed here: items and their measured Plant response rating, Foxtail, Giant.
Tested on: giant foxtail (Setaria faberii)
Assay: Test A preemergence
Format: in vivo
Settings: 125 g ai/ha, preemergence; 0 to 100 scale (0 no effect, 100 complete control)
Simply state the number, no unit and no words.

// worked examples, Plant response rating, Foxtail, Giant included
CCc1ccc(C2CNC(=O)C2C(=O)Nc2ccccc2S(C)(=O)=O)cc1 (centres unmarked) [Compound 468]    0
Cc1cccc(C2CNC(=O)C2C(=O)Nc2ccccc2F)c1 (racemic) [Compound 372]    80
Cc1ccc(C2CN(C)C(=O)C2C(=O)Nc2ccccc2F)cc1F (centres unmarked) [Compound 465]    100
CCc1ccc(C2CNC(=O)C2C(=O)Nc2cccc(F)c2F)cc1 (centres unmarked) [Compound 467]    90

Read the next record carefully.
Form: molecule = CN1CC(c2cccc(OC(F)(F)C(F)F)c2)C(C(=O)Nc2cccc(F)c2F)C1=O (centres unmarked) [Compound 392] ; Plant response rating, Foxtail, Giant = 90
